- test-name: yeast display, Sf9 membrane polyspecificity reagent, FACS + sequencing; frameworks hold sequencing errors
observed-property: polyreactivity (PSR sort gate)

The cases that follow already have their polyreactivity (PSR sort gate) on record.
{"columns": ["input-sequence", "observed-property", "value-reported"],
 "data": [
  ["QVQLVESGGGLVQAGGSLRLSCAASGSTFFGNTMGWYRQAPGKERELVATITRRGGSTYYADSVKGRFTMSRDNAKNTVYLQMNSLKPEDTAVYYCANRGPYTKYDYWGQGTQVTVSS", "polyreactivity (PSR sort gate)", "low polyreactivity"],
  ["QVQLVESGGGLVQAGGSLRLSCAASGFIFVNYMGWYRQAPGKERELVAAISRGGSTNYADSVKGRFTISRDNAKNTVYLQMNSLKPEDTAVYYCAAETWYSGYTYDYWGQGTQVTVSS", "polyreactivity (PSR sort gate)", "low polyreactivity"],
  ["QVQLVESGGGLVQPGGSLRLRCAASGSTLAYYTMGWSRHAPGKEMELVAAISGSGGSTYYADSVKGRFTIARDNAKNTVYLQMNSLKPEDSAVYYSIAVLYYYTSSEYDYWGQGTQVTVSS", "polyreactivity (PSR sort gate)", "high polyreactivity"],
  ["QVQLVESGGGLVQAGGSLRLSCAASGSIFSYYVMGWYRQAPGKERELVARINWSSTSTYYADSVKGRFTISRDNAKNTVYLQMNSLKPEDTAVYYCAAAKRYGRYYEYDYWGQGTQVTVSS", "polyreactivity (PSR sort gate)", "high polyreactivity"]
]}

Here is the next item to consider.
Query: For the sequence shown here, QVQLGESGGGLVQAGGSLRLSCADSGFTFASNAMGWYRQAPAKERELVAAISTSGGSTYYADSVKGRFTISRDNAKNTVYLQMNSLKPEDTAVYYFAVAVNGVSRIKYYYWGQGTQVTVSS , give the reported polyreactivity (PSR sort gate).
Result: high polyreactivity
